# ASSAY NAME: Cytotoxicity against TGFbeta-1-treated HK-2 cells assessed as cell viability at 10 uM incubated for 48 hrs by Cell Titer-Glo assay (Rvb ~ 80 %)
# Type: toxicity, cell-based
# RUN CONDITIONS: human, read-out: Activity
READOUT: viability at 48 h, 10 µM (%)
Numbers only, in %.

GET /value?item= CC(C)=CCCC1(C)Oc2ccc(O)cc2-c2cc(O)ccc21 (racemic) &field=viability at 48 h, 10 µM returns 70
